Below, each entry is listed alongside its reported FMC63 Binding Score.
Tested on: FMC63
Sequence (as listed by the source): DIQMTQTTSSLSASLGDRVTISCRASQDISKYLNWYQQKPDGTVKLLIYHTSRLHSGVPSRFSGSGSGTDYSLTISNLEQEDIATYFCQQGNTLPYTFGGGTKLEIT
Sequence (as listed by the source): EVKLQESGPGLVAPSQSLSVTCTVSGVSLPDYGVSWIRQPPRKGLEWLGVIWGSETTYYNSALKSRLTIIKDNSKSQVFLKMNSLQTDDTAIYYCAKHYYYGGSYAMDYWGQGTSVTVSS
Assay: CD19 variant binding to anti-CD19 antibody FMC63 (score)
Details: Table 1A, CD19 single mutants (positions of SEQ ID NO:2)
Lab note: record just the number, no unit beside it.

{"molecule": "W264K: CD19 variant (protein) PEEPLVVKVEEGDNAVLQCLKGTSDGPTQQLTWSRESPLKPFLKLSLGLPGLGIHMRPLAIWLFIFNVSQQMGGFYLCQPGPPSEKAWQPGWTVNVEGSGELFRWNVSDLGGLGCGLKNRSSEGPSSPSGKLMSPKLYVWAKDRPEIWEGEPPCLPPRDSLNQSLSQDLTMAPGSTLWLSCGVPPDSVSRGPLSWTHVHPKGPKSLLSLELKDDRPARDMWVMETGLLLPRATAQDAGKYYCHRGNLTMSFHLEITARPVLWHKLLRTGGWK", "FMC63 Binding Score": "8."}

From here, focus on the item given below.
The value of FMC63 Binding Score measured for the molecule R215W: CD19 variant (protein) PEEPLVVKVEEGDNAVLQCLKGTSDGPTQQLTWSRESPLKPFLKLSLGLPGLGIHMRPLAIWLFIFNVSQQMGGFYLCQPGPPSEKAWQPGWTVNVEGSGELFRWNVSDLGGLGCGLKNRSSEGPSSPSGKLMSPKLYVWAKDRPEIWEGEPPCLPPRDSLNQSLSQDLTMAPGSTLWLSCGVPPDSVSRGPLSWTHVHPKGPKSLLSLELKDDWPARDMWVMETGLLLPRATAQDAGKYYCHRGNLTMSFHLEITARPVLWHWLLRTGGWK turned out to be 7.1
